assay: refractive index (Na D-line) (dimensionless); conditions: 293.15 K; 101.33 kPa; Liquid; Standard Abbe refractometry
Quick reference for refractive index among some compounds
Please state the value as a number alone, without comment.

{"Compound smiles": "CC(C)CO", "refractive index": 1.39563}
{"Compound smiles": "CCCCO", "refractive index": 1.39928}
{"Compound smiles": "O", "refractive index": 1.33299}

## Input Consider the compound shown here: CC#N What is its recorded refractive index?
## Output 1.34386
